- TGT: menin/MLL (terbium chelate-labeled menin, FITC-MBM1 peptide) (Homo sapiens (Human))
- Sequence (O00255 other isoform, or with tags, fused parts or gaps): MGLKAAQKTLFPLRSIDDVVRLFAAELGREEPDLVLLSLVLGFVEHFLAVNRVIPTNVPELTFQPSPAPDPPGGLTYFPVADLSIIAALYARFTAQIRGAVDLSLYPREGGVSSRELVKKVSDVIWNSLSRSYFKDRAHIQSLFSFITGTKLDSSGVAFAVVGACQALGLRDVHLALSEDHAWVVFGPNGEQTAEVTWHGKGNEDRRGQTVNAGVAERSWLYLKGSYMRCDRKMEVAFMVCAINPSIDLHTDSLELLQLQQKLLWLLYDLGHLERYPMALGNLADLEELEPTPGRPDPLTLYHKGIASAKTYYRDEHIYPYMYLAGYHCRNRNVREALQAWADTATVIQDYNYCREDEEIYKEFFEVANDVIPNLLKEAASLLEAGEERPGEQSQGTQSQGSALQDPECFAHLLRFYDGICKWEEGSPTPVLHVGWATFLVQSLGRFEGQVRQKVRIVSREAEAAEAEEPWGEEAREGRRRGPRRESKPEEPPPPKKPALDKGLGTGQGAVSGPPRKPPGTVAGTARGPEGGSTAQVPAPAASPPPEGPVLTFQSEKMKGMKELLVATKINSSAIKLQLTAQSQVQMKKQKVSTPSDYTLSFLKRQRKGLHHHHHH
- ASSAY_OVERVIEW: Menin/MLL homogenous time-resolved fluorescence (HTRF) assay;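 also: IC50 from percent inhibition of HTRF signal, normalized between wells without competitor and wells with a saturating competitor that displaces FITC-MBM1 from His-tagged menin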
- Format: binding
- EXPERIMENTAL_CONTEXT: HTRF-30 min incubation IC50, 30 min incubation
Where a name gives a salt, the structure may show the parent alone.
EXPERIMENTAL_READOUT: IC50 (nM)

- CCN(C(=O)c1cc(F)ccc1Oc1nncnc1N1CCC2(C1)CN([C@H](CCCN(C)CCC#N)C(C)C)C2)C(C)C: 0.4

(A) CC(C)[C@H](CCC(C)(C)N)N1CC2(CCN(c3ncnnc3Oc3ccc(F)cc3-c3cncnc3C3CC3)C2)C1 (single isomer, unassigned)
(B) CCN(C(=O)c1cc(F)ccc1Oc1nncnc1N1CCC2(C1)CN([C@H](CCCN(C)C[C@@H](O)COC)C(C)C)C2)C(C)C [Compound 283, fumarate]
(C) CCN(C(=O)c1cc(F)ccc1Oc1nncnc1N1CCC2(C1)CN([C@H](CCCN(C)C[C@@H](C)C(=O)N(C)C)C(C)C)C2)C(C)C (single isomer, unassigned)
(D) CCN(C(=O)c1cc(F)ccc1Oc1nncnc1N1CCC2(C1)CN([C@H](C[C@@H](C)CN(C)CCOC)C(C)C)C2)C(C)C (single isomer, unassigned)
(E) CC(C)[C@H](CCCN(C)C)N1CC2(CCN(c3ncnnc3Oc3ccc(F)cc3C(=O)N(C(C)C)C(C)C)C2)C1 (single isomer, unassigned)
(Q) Hey, can you sort those molecules up there by IC50, smallest first? Reply: labels, ordered per the request.
(A) B, C, A, E, D

(P) COCCNCCC[C@H](C(C)C)N1CC2(CCN(c3ncnnc3Oc3ccc(F)cc3C(=O)N(C(C)C)C(C)C)C2)C1 (single isomer, unassigned)
(Q) CCN(C(=O)c1cc(F)ccc1Oc1nncnc1N1CCC2(C1)CN([C@H](CN)C(C)C)C2)C(C)C (single isomer, unassigned)
(R) CCN(C(=O)c1cc(F)ccc1Oc1nncnc1N1CCC2(C1)CN([C@@H](C[C@H](O)CN(C)C(C)C)C(C)C)C2)C(C)C (single isomer, unassigned)
(Q) Descending sort on IC50 required. Reply: labels, ordered per the request.
(A) R, Q, P
(R: 18.4 nM, Q: 0.97 nM, P: 0.2 nM)
